read-out: ABC Transporter (ABCB1), ABCB1 (gene 5243); assay: LTEA_HepaRG_ABCB1: Life Technologies and Expression Analysis (LTEA) Assay for ABC Transporter (ABCB1) using HepaRG (AID 2283460); details: mRNA level, 48 h; actives raise or lower the signal
The source made the active and inactive calls. Rule for the calls: active = hit-call score of the fitted dose curve at least 0.9, where 1 is the maximum; inactive = score below 0.9.
Labels: active, inactive

C=CC(=O)NCNC(=O)C=C = inactive
O=C(N[C@H]1CN2CCC1CC2)c1cc2ccoc2cn1 = inactive
Clc1ccc(C(Cl)(Cl)Cl)cc1 = inactive
O=C(O)C(F)(F)C(F)(F)C(F)(F)C(F)(F)C(F)(F)C(F)(F)C(F)(F)C(F)(F)F = active
CO/C=C(/C(=O)OC)c1ccccc1COc1cccc(C(F)(F)F)n1 = inactive
C1CC2OC2CC1C1CO1 (configuration not stated) = inactive
Nc1ccc(-c2ccc(N)cc2)cc1 = active
O=S(=O)(O)C(F)(F)C(F)(F)C(F)(F)C(F)(F)F = inactive
ClC(Cl)=C(c1ccc(Cl)cc1)c1ccc(Cl)cc1 = active
Oc1c(Cl)c(Cl)c(Cl)c(Cl)c1Cl = active
CCSC(=O)N(CC)C1CCCCC1 = inactive
Cc1cc2c3c(c1)C(c1ccccc1)=N[C@@H](NC(=O)c1ccncc1)C(=O)N3CC2 = active

====

Read-out: Protein phosphatase 2A (PPP2R4), PTPA (gene 5524)
Assay: LTEA_HepaRG_PPP2R4: Life Technologies and Expression Analysis (LTEA) Assay for Protein phosphatase 2A (PPP2R4) using HepaRG (AID 2283522)
Conditions: mRNA level, 48 h; actives raise or lower the signal
Protocol: LTEA_HepaRG is a cell based, multiplexed-readout assay that uses HepaRG, a human liver cell line, with measurements taken at 48 hours after chemical dosing on a 96-well plate.LTEA_HepaRG_PPP2R4 is one of 102 assay component(s) measured in the LTEA HepaRG cell culture assay. It is a marker of Cell proliferation, survival, death.Data from the assay component LTEA_HepaRG_PPP2R4 was analyzed into 1 endpoint. […]
Calls of active or inactive are those of the source. Rule for the calls: active = hit-call score of the fitted dose curve at least 0.9, where 1 is the maximum; inactive = score below 0.9.
Labels: active, inactive

Nc1ccc(-c2ccc(N)cc2)cc1 = inactive
Cc1ccccc1O = inactive
Cc1cccc(C)c1N = inactive
ClC1=C(Cl)[C@]2(Cl)[C@@H]3[C@@H]4C[C@@H]([C@H]5O[C@@H]45)[C@@H]3[C@@]1(Cl)C2(Cl)Cl = inactive
O=C(NC(=O)c1cc(F)c(F)cc1Cl)Nc1cc(F)ccc1N1CCC(C(=O)O)CC1 = inactive
CC#Cc1cc(C)nc(Nc2ccccc2)n1 = inactive
O=C(N[C@H]1CN2CCC1CC2)c1cc2ccoc2cn1 = inactive
CCCN(CCC)N=O = inactive
Cc1cccc([N+](=O)[O-])c1 = inactive
CN(C)CCO = inactive
ClC(Cl)=C(c1ccc(Cl)cc1)c1ccc(Cl)cc1 = inactive
Nn1cnnc1 = inactive
Oc1ccc(C(c2ccc(O)cc2)(C(F)(F)F)C(F)(F)F)cc1 = active
Clc1ccc(C(c2ccccc2Cl)C(Cl)(Cl)Cl)cc1 (centres undefined) = inactive

====

read-out: Heat shock 70 kDa protein 1 (HSPA1A), gene 3303; experiment: LTEA_HepaRG_HSPA1A: Life Technologies and Expression Analysis (LTEA) Assay for Heat shock 70 kDa protein 1 (HSPA1A) using HepaRG (AID 2283502); settings: mRNA level, 48 h; actives raise or lower the signal
Activity calls are given as the source filed them. The calls were made as follows: active = hit-call score of the fitted dose curve at least 0.9, where 1 is the maximum; inactive = score below 0.9.
Labels: active, inactive

Cc1cccc(C)c1N = inactive
CC(c1ccc(O)cc1)(c1ccc(O)cc1)c1ccc(O)cc1 = inactive
C1CC2OC2CC1C1CO1 (stereo not given) = inactive
CCC(=O)O[C@H]1CC[C@H]2[C@@H]3CCC4=CC(=O)CC[C@]4(C)[C@H]3CC[C@]12C = inactive
CCCCCCOC(=O)c1ccccc1C(=O)OCCCCCC = inactive
CCCN(CCC)N=O = inactive
c1ccc(-c2ccccc2)cc1 = inactive
O=S(=O)(O)C(F)(F)C(F)(F)C(F)(F)C(F)(F)C(F)(F)C(F)(F)F = inactive
C=CC(=O)NCNC(=O)C=C = inactive
Clc1ccc(C(c2ccccc2Cl)C(Cl)(Cl)Cl)cc1 (stereo not given) = active
